Taken from the RNAGym collection of RNA variant scans (doi:10.7554/elife.80360).

B1: Hairpin Ribozyme (parent)
chain: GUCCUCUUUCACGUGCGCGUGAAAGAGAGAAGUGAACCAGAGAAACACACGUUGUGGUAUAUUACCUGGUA

Variants of: B1
ASSAY REMARKS: self-cleavage, relative activity (ratio to wild type); higher = more cleavage; co-transcriptional
ASSAY ENDPOINT: self-cleavage

[
  {
    "MUTATION KEY": "U9G A43C",
    "ASSAY ENDPOINT": "self-cleavage",
    "RECORDED MEASUREMENT": 0.0922
  },
  {
    "MUTATION KEY": "C4A C50A",
    "ASSAY ENDPOINT": "self-cleavage",
    "RECORDED MEASUREMENT": 0.178
  },
  {
    "MUTATION KEY": "G21C A35C",
    "ASSAY ENDPOINT": "self-cleavage",
    "RECORDED MEASUREMENT": 0.748
  },
  {
    "MUTATION KEY": "C10G C12U",
    "ASSAY ENDPOINT": "self-cleavage",
    "RECORDED MEASUREMENT": 0.503
  },
  {
    "MUTATION KEY": "G27C U52A",
    "ASSAY ENDPOINT": "self-cleavage",
    "RECORDED MEASUREMENT": 0.167
  },
  {
    "MUTATION KEY": "G1U G32C",
    "ASSAY ENDPOINT": "self-cleavage",
    "RECORDED MEASUREMENT": 0.0843
  },
  {
    "MUTATION KEY": "G51U G68C",
    "ASSAY ENDPOINT": "self-cleavage",
    "RECORDED MEASUREMENT": 0.274
  },
  {
    "MUTATION KEY": "A23C G27C",
    "ASSAY ENDPOINT": "self-cleavage",
    "RECORDED MEASUREMENT": 0.187
  },
  {
    "MUTATION KEY": "A11G G19U",
    "ASSAY ENDPOINT": "self-cleavage",
    "RECORDED MEASUREMENT": 0.979
  },
  {
    "MUTATION KEY": "G1A A43G",
    "ASSAY ENDPOINT": "self-cleavage",
    "RECORDED MEASUREMENT": 0.2
  },
  {
    "MUTATION KEY": "U7C G19U",
    "ASSAY ENDPOINT": "self-cleavage",
    "RECORDED MEASUREMENT": 0.68
  },
  {
    "MUTATION KEY": "A41G G69C",
    "ASSAY ENDPOINT": "self-cleavage",
    "RECORDED MEASUREMENT": 0.534
  },
  {
    "MUTATION KEY": "A22U A43G",
    "ASSAY ENDPOINT": "self-cleavage",
    "RECORDED MEASUREMENT": 0.237
  },
  {
    "MUTATION KEY": "C3U G54U",
    "ASSAY ENDPOINT": "self-cleavage",
    "RECORDED MEASUREMENT": 0.227
  },
  {
    "MUTATION KEY": "C3G G19C",
    "ASSAY ENDPOINT": "self-cleavage",
    "RECORDED MEASUREMENT": 0.229
  },
  {
    "MUTATION KEY": "U7C C65A",
    "ASSAY ENDPOINT": "self-cleavage",
    "RECORDED MEASUREMENT": 0.684
  },
  {
    "MUTATION KEY": "C46A C65G",
    "ASSAY ENDPOINT": "self-cleavage",
    "RECORDED MEASUREMENT": 0.146
  },
  {
    "MUTATION KEY": "G19C U52A",
    "ASSAY ENDPOINT": "self-cleavage",
    "RECORDED MEASUREMENT": 0.957
  },
  {
    "MUTATION KEY": "U9A A41C",
    "ASSAY ENDPOINT": "self-cleavage",
    "RECORDED MEASUREMENT": 0.783
  },
  {
    "MUTATION KEY": "A61U",
    "ASSAY ENDPOINT": "self-cleavage",
    "RECORDED MEASUREMENT": 0.213
  },
  {
    "MUTATION KEY": "G32A U58C",
    "ASSAY ENDPOINT": "self-cleavage",
    "RECORDED MEASUREMENT": 0.184
  },
  {
    "MUTATION KEY": "U8A U70A",
    "ASSAY ENDPOINT": "self-cleavage",
    "RECORDED MEASUREMENT": 0.665
  },
  {
    "MUTATION KEY": "C37U U55A",
    "ASSAY ENDPOINT": "self-cleavage",
    "RECORDED MEASUREMENT": 0.143
  },
  {
    "MUTATION KEY": "C12U C18U",
    "ASSAY ENDPOINT": "self-cleavage",
    "RECORDED MEASUREMENT": 0.978
  },
  {
    "MUTATION KEY": "C37U U67A",
    "ASSAY ENDPOINT": "self-cleavage",
    "RECORDED MEASUREMENT": 0.175
  },
  {
    "MUTATION KEY": "C12A A24C",
    "ASSAY ENDPOINT": "self-cleavage",
    "RECORDED MEASUREMENT": 0.914
  },
  {
    "MUTATION KEY": "U8G A36C",
    "ASSAY ENDPOINT": "self-cleavage",
    "RECORDED MEASUREMENT": 0.5
  },
  {
    "MUTATION KEY": "U60G U63G",
    "ASSAY ENDPOINT": "self-cleavage",
    "RECORDED MEASUREMENT": 0.0801
  },
  {
    "MUTATION KEY": "G17C A49U",
    "ASSAY ENDPOINT": "self-cleavage",
    "RECORDED MEASUREMENT": 0.263
  },
  {
    "MUTATION KEY": "U5A G54U",
    "ASSAY ENDPOINT": "self-cleavage",
    "RECORDED MEASUREMENT": 0.327
  },
  {
    "MUTATION KEY": "G29A U53C",
    "ASSAY ENDPOINT": "self-cleavage",
    "RECORDED MEASUREMENT": 0.234
  },
  {
    "MUTATION KEY": "A24G A49U",
    "ASSAY ENDPOINT": "self-cleavage",
    "RECORDED MEASUREMENT": 0.124
  },
  {
    "MUTATION KEY": "C37G A43G",
    "ASSAY ENDPOINT": "self-cleavage",
    "RECORDED MEASUREMENT": 0.261
  },
  {
    "MUTATION KEY": "A22U A61C",
    "ASSAY ENDPOINT": "self-cleavage",
    "RECORDED MEASUREMENT": 0.171
  },
  {
    "MUTATION KEY": "C46A A59G",
    "ASSAY ENDPOINT": "self-cleavage",
    "RECORDED MEASUREMENT": 0.107
  },
  {
    "MUTATION KEY": "A30C G42U",
    "ASSAY ENDPOINT": "self-cleavage",
    "RECORDED MEASUREMENT": 0.111
  },
  {
    "MUTATION KEY": "C3G G32A",
    "ASSAY ENDPOINT": "self-cleavage",
    "RECORDED MEASUREMENT": 0.0849
  },
  {
    "MUTATION KEY": "U9G U67G",
    "ASSAY ENDPOINT": "self-cleavage",
    "RECORDED MEASUREMENT": 0.279
  },
  {
    "MUTATION KEY": "U52G A71G",
    "ASSAY ENDPOINT": "self-cleavage",
    "RECORDED MEASUREMENT": 0.654
  },
  {
    "MUTATION KEY": "G1U C16U",
    "ASSAY ENDPOINT": "self-cleavage",
    "RECORDED MEASUREMENT": 0.0937
  },
  {
    "MUTATION KEY": "A22U U62C",
    "ASSAY ENDPOINT": "self-cleavage",
    "RECORDED MEASUREMENT": 0.127
  },
  {
    "MUTATION KEY": "A39G A71C",
    "ASSAY ENDPOINT": "self-cleavage",
    "RECORDED MEASUREMENT": 0.303
  },
  {
    "MUTATION KEY": "G51A A59C",
    "ASSAY ENDPOINT": "self-cleavage",
    "RECORDED MEASUREMENT": 0.181
  },
  {
    "MUTATION KEY": "G19U A28C",
    "ASSAY ENDPOINT": "self-cleavage",
    "RECORDED MEASUREMENT": 0.357
  },
  {
    "MUTATION KEY": "G21U U53C",
    "ASSAY ENDPOINT": "self-cleavage",
    "RECORDED MEASUREMENT": 0.85
  },
  {
    "MUTATION KEY": "C10A U63G",
    "ASSAY ENDPOINT": "self-cleavage",
    "RECORDED MEASUREMENT": 0.152
  }
]
